Test system: incretin hormone GIP
measurement_notes: Incretin hormone GIP release in male 129SVE mice (Total GIP ELISA)
Type: in vivo, mouse
test_settings: 10 mpk p.o., plasma sample after 45 min, PET vehicle 72.5
Would you please tag the item TRUE when its Total GIP, pg/mL (dose, mg/kg) is 400 pg/mL or above, and FALSE when it is below?

Worked examples follow.
CC(C)OC(=O)N1CCC(O[C@H]2CC[C@H](Oc3cnc(S(C)(=O)=O)cn3)CC2)CC1 ... TRUE
CS(=O)(=O)c1cnc(O[C@H]2CC[C@H](OC3CCN(C(=O)OC(CF)CF)CC3)CC2)cn1 ... FALSE
CCC(F)(F)C(=O)N1CCC(O[C@H]2CC[C@H](Oc3cnc(S(C)(=O)=O)cn3)CC2)CC1 ... FALSE
CC(C)(F)c1noc(N2CCC(O[C@H]3CC[C@H](Oc4cnc(S(C)(=O)=O)cn4)CC3)CC2)n1 ... FALSE

Please find the next compound below.
Exercise: Has CC(C)(F)c1nc(N2CCC(O[C@H]3CC[C@H](Oc4cnc(S(C)(=O)=O)cn4)CC3)CC2)no1 a recorded Total GIP, pg/mL (dose, mg/kg) greater than or equal to 400 pg/mL?
Key: FALSE

Reference source for all entries: patent US20130023494A1
